Several reports have described IC50 for ROCK2 (Homo sapiens, UniProt O75116); a selection of those results is presented here.

Example results:
compound=COc1c(F)cccc1CN1CCN(c2ccc(-c3cn[nH]c3)cc2)C1=O target_or_test_system="ROCK2 (Homo sapiens, UniProt O75116)" measurement_type=IC50 experimental_value="20.1 to 200 nM"
compound=COc1cc(CN2CCN(c3ccc(-c4cn[nH]c4)nc3)C2=O)ccc1F target_or_test_system="ROCK2 (Homo sapiens, UniProt O75116)" measurement_type=IC50 experimental_value="20.1 to 200 nM"

Identify the measured IC50 of `COc1cc(-n2nnn(Cc3c(F)cccc3F)c2=O)ccc1-c1cn[nH]c1` for ROCK2 (Homo sapiens, UniProt O75116). 50 to 250 nM

Quick check: IC50 on ROCK2 (Homo sapiens, UniProt O75116), item COc1ccc(-n2nc(C(=O)NC3CC4(C3)CC(c3n[nH]c(=O)c5ccccc35)C4)c3c2C(=O)NCC3)cc1 (stereo not shown) ? 15.1 to 100 nM

* * *

Compiled literature IC50, tested on ROCK2 (Homo sapiens, UniProt O75116).

Answered examples (2):
compound="O=C(N[C@H]1CC2(C1)C[C@H](c1n[nH]c(=O)c3ccccc31)C2)c1cnn2cc(CCCN3CCOCC3)ccc12 (stereo partly shown)" experimental_value="2.01 to 5 nM"
compound="CCOC(=O)c1cc(-c2cccc(C(CCN)NC(=O)c3ccc4cnccc4c3)c2)cs1 (stereo not shown)" experimental_value="< 100 nM"

# IC50 lookup, item COc1ccc(F)c(OC2CCN(c3ccc(-c4n[nH]c(=O)c5ccccc45)cc3)C2=O)c1 (stereo not shown) 10 to 100 nM

Entry O=C(NC1CC2(C1)CC(c1n[nH]c(=O)c3ccccc13)C2)c1cnn2c(C3CC3)c(OCc3ccccc3)ccc12 (stereo not shown) has what IC50? 2.01 to 5 nM

* * *

pIC50: −log10 of the molar value.
Below, pIC50 values reported for UniProt O75116 across several publications.

Answered cases to consult:
molecule=COc1cc(F)cc(CNC(=O)N2CCc3cc(-c4cn[nH]c4)cc(Cl)c32)c1 target_or_test_system="UniProt O75116" experimental_value="6.30 to 7.30"
molecule=COc1cccc(CN2CCN(c3ccc(-c4cn[nH]c4)cc3)C2=O)c1 target_or_test_system="UniProt O75116" experimental_value="7.70 to 8.68"

Which pIC50 is reported with UniProt O75116 for this entry: CCOc1cccc(C(C)n2ccn(-c3ccc(-c4cn[nH]c4)cn3)c2=O)c1 (single isomer, unassigned) ? 7.70 to 8.68

GET /values?readout=pIC50&system=UniProt O75116&item= O=C1C(c2ccc(-c3n[nH]c(=O)c4ccccc34)cc2)CCN1Cc1ccccc1 (centres unmarked) 5.70 to 6.30

Quick check: pIC50 on UniProt O75116, item COc1cccc(C(C)n2ccn(-c3ccc(-c4cn[nH]c4)c(C)n3)c2=O)c1 (single isomer, unassigned) ? 6.70 to 7.70

* * *

pIC50: −log10 of the molar value.
Multi-source literature compilation: pIC50 on ROCK2 (Homo sapiens, UniProt O75116).

compound=COc1c(-c2cn[nH]c2)ccc(C(=O)N[C@H](CO)c2c(F)cccc2F)c1F target_or_test_system="ROCK2 (Homo sapiens, UniProt O75116)" measurement_type=pIC50 experimental_value=7.67
compound="CCc1nc(N2CC3(CCN(CC(C)O)CC3)N(Cc3cccc(OC)c3)C2=O)ccc1-c1cn[nH]c1 (stereo not drawn)" target_or_test_system="ROCK2 (Homo sapiens, UniProt O75116)" measurement_type=pIC50 experimental_value="> 8.52"
compound=COc1cc(N2CCC3(CCN(C(=O)c4ccc5c(c4)CC(=O)N5)CC3)C2=O)ccc1-c1cn[nH]c1 target_or_test_system="ROCK2 (Homo sapiens, UniProt O75116)" measurement_type=pIC50 experimental_value=7.11
compound=COc1ccc2c(c1)cc(C(=O)N1CCC3(CC1)CCN(c1ccc(-c4cn[nH]c4)c(OC)c1)C3=O)n2C target_or_test_system="ROCK2 (Homo sapiens, UniProt O75116)" measurement_type=pIC50 experimental_value=7.27
compound="COCC(c1cccc(OC)c1)N1CCN(c2ccc(-c3cn[nH]c3)cc2)C1=O (single isomer, unassigned)" target_or_test_system="ROCK2 (Homo sapiens, UniProt O75116)" measurement_type=pIC50 experimental_value="7.70 to 8.68"
compound="O=C(NC1CC2(C1)CC(c1n[nH]c(=O)c3ccccc13)C2)c1cn2c(n1)sc1ccccc12 (stereo not drawn)" target_or_test_system="ROCK2 (Homo sapiens, UniProt O75116)" measurement_type=pIC50 experimental_value="7.82 to 8.29"

Enter reported pIC50 observed with ROCK2 (Homo sapiens, UniProt O75116) for `COc1cc(Nc2ccnc(-c3ccc4cc(C(=O)N5CC(F)(F)C5)n(C)c4c3)n2)ccc1-c1cn[nH]c1` 8.22

Hello, I am looking for reported pIC50 with ROCK2 (Homo sapiens, UniProt O75116) for `O=C1N(Cc2ccccc2)CCN1c1ccc(-c2ccncc2F)cc1` . Could you help? 6.70 to 7.70

Write down the reported pIC50 of `COc1ccc(F)c(CN2CCN(c3ccc(-c4cn[nH]c4)c(OC)n3)C2=O)c1` , test system: ROCK2 (Homo sapiens, UniProt O75116). > 8.70

Report pIC50 for `COc1cccc(CN2C(=O)N(c3ccc(-c4cn[nH]c4)cn3)CC2(C)C)c1` tested on ROCK2 (Homo sapiens, UniProt O75116). > 8.70

* * *

Assay read-out IC50 on ROCK2 (Homo sapiens); records merged from the literature.

Here is how some molecules turned out for IC50.
molecule=COc1cccc(CN2CCN(c3ccc(-c4cn[nH]c4)c(F)c3)C2=O)c1F measurement_type=IC50 experimental_value="20.1 to 200 nM"
molecule=CCc1nc(N2CC3(CCN(C(=O)C4COC4)CC3)N(Cc3cccc(OC)c3)C2=O)ccc1-c1cn[nH]c1 measurement_type=IC50 experimental_value="< 3 nM"
molecule="[H][C@]1(c2n[nH]c(=O)c3ccccc32)C[C@]2(C[C@@H](NC(=O)c3cc4ccc(F)c(C)c4[nH]3)C2)C1 (stereo partly shown)" measurement_type=IC50 experimental_value="0.2 to 2 nM"

Please find the next molecule below.
Data request, read-out IC50, for [H][C@]1(c2n[nH]c(=O)c3ccccc32)C[C@@]2(C[C@H](NC(=O)c3cc4ccccc4n3C)C2)C1 (stereo partly shown) 5.1 to 15 nM

* * *

Record: compiled IC50 on ROCK2 (Homo sapiens, UniProt O75116) from multiple reports.

Use these answered entries as a reference point.
compound_string=CCc1cc(-n2ccn(Cc3cc(F)cc(OC)c3)c2=O)ccc1-c1cn[nH]c1 experimental_value="20.1 to 200 nM"
compound_string=COc1cc(-n2nc(C)n(Cc3cc(F)cc(F)c3)c2=O)ccc1-c1cn[nH]c1 experimental_value="5 to 50 nM"
compound_string=O=C(Nc1cccc(-c2cc(Nc3ccc4[nH]ncc4c3)no2)c1)c1cccnc1 experimental_value="< 300 nM"
compound_string=COc1cccc(Cn2nnn(-c3ccc(-c4cn[nH]c4)c(OC)c3)c2=O)c1 experimental_value="5 to 50 nM"

Item `CCc1nc(N2CC3(CCN(C(=O)[C@H]4CC4(F)F)CC3)N(Cc3cccc(OC)c3)C2=O)ccc1-c1cn[nH]c1` has what recorded IC50? < 3 nM

* * *

Recorded IC50 for compounds tested on UniProt O75116, drawn from a number of studies.

compound="O=C(Nc1cccc(CN2CCC(Nc3cccc4cnccc34)CC2)c1)c1cccc(C(=O)OCC2CCCO2)c1 (stereo not drawn)" target_or_test_system="UniProt O75116" experimental_value="< 100 nM"
compound=Cn1cc(C(=O)Nc2cccc(-n3nc(Nc4ccc5[nH]ncc5c4Cl)c4ccccc43)n2)cn1 target_or_test_system="UniProt O75116" experimental_value="< 300 nM"
compound="COc1ccc(F)c(C(C)NC(=O)c2ccc(-c3cn[nH]c3)c(OC)c2)c1 (stereo not drawn)" target_or_test_system="UniProt O75116" experimental_value="47.2 nM"

# returns recorded IC50 (system: UniProt O75116) for `COc1ccc2cc(C(=O)N3CCC4(CC3)CCN(c3ccc(-c5cn[nH]c5)c(OC)c3)C4=O)n(C)c2c1` 118 nM

Query the reported IC50 for UniProt O75116; item: `COc1cc(-c2cn[nH]c2)ccc1N1CCN(CCc2ccccc2F)C1=O` 20.1 to 200 nM

Under UniProt O75116: IC50 value of CC(C)(CC1NC(=O)N([C@H]2C[C@@]3(C[C@H](Oc4ncccc4C(N)=O)C3)C2)C1=O)c1ccccc1 (stereo partly drawn) ? 27 nM

Please tell me: IC50 of `Cc1cn(-c2ccc3c(c2)CCN(C(=O)NC(C)C)C3)nc1Nc1ccc2[nH]ncc2c1Cl` , system UniProt O75116? < 300 nM

Reported IC50 for UniProt O75116, given `O=c1n(-c2ccc(-c3cn[nH]c3)cc2)nc(CO)n1Cc1cccc(OC(F)F)c1` ? 5 to 50 nM
